Tested on: SNB-19 CNS
Experiment: NCI-60 one-dose screen, 48 h (100 = growth as untreated, 0 = no growth, -100 = all killed)
Details: 10 µM unless noted
The panel holds about 83,000 compounds, 20% with a hit somewhere; the sample as a whole holds those more often.
Below is a list of entries, each paired with its recorded growth value.

Molecule: CCOc1cc(C(C)(C)C)ccc1C1=N[C@H](c2ccc(Cl)cc2)[C@H](c2ccc(Cl)cc2)N1C(=O)N1CCN(CC#Cc2cccc3c2CN([C@@H]2CCC(=O)NC2=O)C3=O)CC1
growth [%]: 45

Molecule: Nc1ccc2c3c(cccc13)-c1ccccc1-2
growth [%]: 97.7

Molecule: Cc1cc2c(cc1C)Nc1sc(NC(=O)CN3CCN(C)CC3)nc1C(=O)N2
growth [%]: 96.6

Molecule: Nc1ccc(C2=NN(c3ccccc3)C(c3ccc(Cl)cc3)C2)cc1 (stereo not given)
growth [%]: 78.1

Molecule: C=C(C)[C@@H]1C[C@H](O)Cc2cc(Cl)cc(Cl)c2N1
growth [%]: 103
